B1: Kinesin-like protein KIF16B, residues 1213 to 1273; numbered along this chain, Q96L93 (parent)
chain: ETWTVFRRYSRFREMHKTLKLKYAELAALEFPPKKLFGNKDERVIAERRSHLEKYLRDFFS

variants of: B1; assay: abundance fitness (aPCA) (normalised: wild type 0, dead -1); higher = more abundant; growth selection in yeast, the domain comes from the species named; settings: Homo sapiens
OBSERVATION_TYPE: abundance fitness

INSERT INTO measurements (mutant_id, recorded_number) VALUES
  ('S50V', -0.36),
  ('T2W', -0.146),
  ('A24M', -0.107),
  ('M15W', 0.229),
  ('E53V', 0.277),
  ('R8Y', 0.048),
  ('D41G', 0.038),
  ('F60E', -1),
  ('R43Q', 0.003),
  ('L26S', -0.77),
  ('A46D', -0.01);
